Target: RanGTP-importin-beta complex (human Ran / KPNB1)
Test: disruptors of RanGTP/KPNB1 binding – biochemical, FRET, CFP/YFP, cell-free homogeneous, confirmation (AID 2823)
Details: CFP-Ran/YFP-importin-beta FRET ratio
Active and inactive are the calls of the source. How the calls were made is not given here.
Allowed answers: class 1 (active), class 0 (inactive)

Illustrative cases are given below, each with its answer.
1) COC(=O)C1=C(C)NC(C)=C(C(=O)OC)C1C(=O)OC(C)C(=O)c1ccccc1 (stereo not given)    class 0
2) CCOc1ccc(N2C(=O)C3C4C=CC(CC4)C3C2=O)c([N+](=O)[O-])c1 (stereo not given)    class 0
3) CCN(CC)Cc1c(O)c(Cl)cc2c(C)c(C)c(=O)oc12    class 1

Q) Which result was noted for this compound in the test: `O=C(Nc1ccccc1-c1ccccc1)c1cccs1`
A) class 0

Q) Which result was noted for this compound in the test: `CSc1ncccc1C(=O)OCC(=O)c1cc2ccccc2o1`
A) class 0

Q) Which result was noted for this compound in the test: `Cc1cccc(C)c1OCC(=O)OC/C(O)=C(\C#N)c1nc2ccccc2[nH]1`
A) class 0

Q) Which result was noted for this compound in the test: `Cc1ccc(OCC(=O)N2CCCCCC2)c(C)c1`
A) class 0

Q) Which result was noted for this compound in the test: `CCC(=O)NCCNc1nc2cc(C)c(C)cc2cc1C#N`
A) class 1

Q) Which result was noted for this compound in the test: `CCOC(=O)C(=O)Nc1cc(C(=O)OC)cc(C(=O)OC)c1`
A) class 0
